System: MALME-3M melanoma
Experiment: NCI tumour cell line growth inhibition, 48 h
Where a SMILES comes first, the peptide text is derived from it. The star is where a group is joined. Cbz = O=C(OCc1ccccc1)*
// label = 1.0 if TGI is not less than 40 µM, otherwise 0.0

Before answering, review these 4 worked examples.
[
  {
    "compound": "CC1=NN(C(=O)c2ccccc2O)C(c2ccccc2Cl)C1C(=O)Nc1ccccc1 (centres undefined)",
    "label": 1.0
  },
  {
    "compound": "O=C1CCCC1NC(=O)C(F)(F)F (centres undefined)",
    "label": 1.0
  },
  {
    "compound": "C=C1CC[C@@H]2[C@](C)(COC(C)=O)[C@H](OC(C)=O)CC[C@@]2(C)[C@@H]1C/C=C1/C(=O)OC[C@H]1OC(C)=O",
    "label": 0.0
  },
  {
    "compound": "Cc1cc(-c2nc3cc(O)ccc3s2)ccc1N",
    "label": 1.0
  }
]

Given CCOC(=O)C(CC(=O)OC)NC(=O)C(CC(=O)OC)NC(=O)C(CC(=O)OC)NC(=O)C(CC(=O)OC)NC(=O)OCc1ccccc1 (centres undefined) (Cbz-D(OMe)D(OMe)D(OMe)D(OMe)-OEt; configuration not given here) , state whether its TGI is at least 40 µM. 1.0

Textbook exercise: given the entry c1ccc(SC(CCCCOC2CCCCO2)Sc2ccccc2)cc1 (centres undefined) , state whether its TGI is greater than or equal to 40 µM. 1.0

Reported TGI at or above 40 µM? COc1ccc(NS(=O)c2ccc(OC)cc2)cc1 (centres undefined) 1.0

Item C=CCN=C1NC(=O)C(CC(=O)Nc2ccc(C)cc2)S1 (centres undefined) with TGI of 40 µM or above? 1.0

----------
Test system: MCF7 breast
Experiment: NCI tumour cell line growth inhibition, 48 h
Here, each record is paired with measured TGI data.

# count of solved cases: 5
[
  {
    "smiles.representation": "CCCCc1ccc(Nc2nc(N)c3ncn(COCCO)c3n2)cc1",
    "study.system": "MCF7 breast",
    "TGI": "> 100 µM"
  },
  {
    "smiles.representation": "C=C1C(=O)O[C@H]2[C@H]1CC/C(CNS(=O)(=O)c1cccc3ccccc13)=C\\CC[C@@]1(C)O[C@@H]21",
    "study.system": "MCF7 breast",
    "TGI": "3.14 µM"
  },
  {
    "smiles.representation": "O=C(NCC(C(=O)OCc1ccccc1)C(=O)OCc1ccccc1)OCc1ccccc1",
    "study.system": "MCF7 breast",
    "TGI": "> 100 µM"
  },
  {
    "smiles.representation": "CCOC(=O)C(=CNC(=S)Nc1c(CC)cccc1CC)C(=O)OCC",
    "study.system": "MCF7 breast",
    "TGI": "> 100 µM"
  },
  {
    "smiles.representation": "COc1ccc(/C(C)=N/NC(=O)c2ccncc2)cc1OC",
    "study.system": "MCF7 breast",
    "TGI": "> 10 µM"
  }
]

Memo: "CN1CCN(CCCCN2c3ccccc3Sc3ccc(N=[N+]=[N-])cc32)CC1" , reported TGI: 9.75 µM

----------
System: ACHN renal
Assay: NCI tumour cell line growth inhibition, 48 h
The following compounds are listed with their measured TGI values.

[
  {
    "compound": "CC1=NN(C(=O)c2ccccc2O)C(c2ccccc2Cl)C1C(=O)Nc1ccccc1 (stereo not drawn)",
    "reported.property": "TGI",
    "data.value": "> 100 µM"
  },
  {
    "compound": "COc1ccc(/C=C2\\CN(C)CC3C2=NC(=S)NC3c2ccc(OC)cc2)cc1 (stereo not drawn)",
    "reported.property": "TGI",
    "data.value": "> 100 µM"
  }
]

Please examine the following record next.
Quick note, TGI for COc1cc(C(=O)CC2(O)C(=O)Nc3c(Cl)cc(Cl)cc32)ccc1O (stereo not drawn) landed at > 100 µM

----------
# TGI annotations
Tested on: HOP-92 NSCLC
Experiment: NCI tumour cell line growth inhibition, 48 h

Illustrative cases are given below, each with its answer.
[
  {
    "compound": "O=C(CC(C(=O)c1cccs1)c1ccsc1)c1ccco1 (stereo not given)",
    "study.system": "HOP-92 NSCLC",
    "data.value": "> 100 µM"
  },
  {
    "compound": "COc1ccc2c(c1)CCCN1Cc3ccccc3CC21 (stereo not given)",
    "study.system": "HOP-92 NSCLC",
    "data.value": "> 100 µM"
  },
  {
    "compound": "C/C1=C\\CC/C(C)=C/C=C(/C(C)C)CC/C(C(=O)O)=C/CC1",
    "study.system": "HOP-92 NSCLC",
    "data.value": "> 100 µM"
  },
  {
    "compound": "CC(C)C[C@@H]1NC(=O)[C@@H]2CCCN2C(=O)[C@@H]2CCCN2C(=O)[C@H](CC(C)C)NC(=O)[C@H](CO)NC(=O)[C@H](CCCCN)NC(=O)[C@H]([C@H](C)O)NC(=O)[C@@H]2CCCC[C@@H](NC1=O)C(=O)N[C@@H](Cc1ccccc1)C(=O)N1CCC[C@H]1C(=O)N[C@@H](CC(=O)O)C(=O)NCC(=O)N[C@@H](CCCN=C(N)N)C(=O)N2",
    "study.system": "HOP-92 NSCLC",
    "data.value": "> 50 µM"
  },
  {
    "compound": "CN(C)CCCNc1ccc2nnn3c4ccc(OC(=O)c5ccc([N+](=O)[O-])cc5)cc4c(=O)c1c23",
    "study.system": "HOP-92 NSCLC",
    "data.value": "> 57.6 µM"
  },
  {
    "compound": "CCOC(=O)C1=NN(c2ccccc2)C2=CC(C)=NN(C)C(=S)N21",
    "study.system": "HOP-92 NSCLC",
    "data.value": "> 100 µM"
  },
  {
    "compound": "Clc1ccc(-c2nc3ccc(C45CC6CC(CC(C6)C4)C5)cc3[nH]2)cc1",
    "study.system": "HOP-92 NSCLC",
    "data.value": "> 95.3 µM"
  },
  {
    "compound": "Cc1ccc(N2C(=O)/C(=C/c3ccc(N(CCC#N)CCC#N)cc3C)N=C2c2cc([N+](=O)[O-])ccc2Cl)cc1",
    "study.system": "HOP-92 NSCLC",
    "data.value": "> 100 µM"
  }
]

Form field TGI, entry COc1cc([C@@H]2OC(=O)C3C2C(=O)O[C@H]3c2cc(OC)c(OC)c(OC)c2)cc(OC)c1OC (stereo not given in full) : > 100 µM

For reference, reported TGI for "O=C1c2c(nc3ccccc3c2-c2ccccc2)CN1Nc1ccccc1" stands at > 100 µM

----------
// values below are reported TGI
Tested on: NCI-H226 lung
Assay: NCI tumour cell line growth inhibition, 48 h

"Cc1cccc2c1C/C(=C1\CCc3c(C)cccc31)C2=O" tested on NCI-H226 lung gave TGI: > 100 µM

Form: item Cc1cc(C)c(NS(=O)c2cccc(Cl)c2)c(C)c1 (configuration not stated) ; test system NCI-H226 lung; TGI: > 100 µM

----------
Tested on: SNB-75 CNS
Assay: NCI tumour cell line growth inhibition, 48 h
reported.property: TGI

Use the examples below as a reference point.
[
  {
    "smiles.representation": "[O-]c1c[n+](CC[n+]2cc([O-])on2)no1",
    "data.value": "> 100 µM"
  },
  {
    "smiles.representation": "Clc1ccc(-c2nc3ccc(C45CC6CC(CC(C6)C4)C5)cc3[nH]2)cc1",
    "data.value": "> 100 µM"
  }
]

Now examine the next entry.
Please fill in: TGI reported for "O=C1C[C@H]2CC3(CC[C@H]2CN1)OCCO3" = > 100 µM

----------
Let's look at some compounds and their measured TGI.
Tested on: NCI-H522 lung
Experiment: NCI tumour cell line growth inhibition, 48 h

[
  {
    "compound": "C[C@@H]1C[C@@]2(O[C@@H]2C)C(=O)O[C@@H]2CCN3CC=C(COC(=O)[C@]1(C)O)[C@H]23",
    "TGI": "> 100 µM"
  },
  {
    "compound": "Oc1c(N=Nc2ccccc2)c2ccccc2c2ccc3ccccc3c12",
    "TGI": "> 100 µM"
  },
  {
    "compound": "CC(=O)OCC1OC(n2c(C)c(C(C)=O)c(-c3cccc4ccccc34)c(C#N)c2=S)C(OC(C)=O)C(OC(C)=O)C1OC(C)=O (configuration not stated)",
    "TGI": "> 100 µM"
  },
  {
    "compound": "C=CC(=O)Nc1cccc(C)c1Nc1ncc2cc(-c3c(Cl)c(OC)cc(OC)c3Cl)ccc2n1",
    "TGI": "26.9 µM"
  },
  {
    "compound": "Cc1cccc2c1C(=O)OC2(C)c1cccc2ccccc12 (configuration not stated)",
    "TGI": "40.4 µM"
  }
]

Entry "O=C1C[C@H]2CC3(CC[C@H]2CN1)OCCO3" ; assay system NCI-H522 lung; TGI recorded at > 100 µM

Test item CC1(C)C2C/C(=C\c3ccccc3)C(=O)C1C2 (configuration not stated) ; NCI-H522 lung; reported TGI was > 100 µM
